Biological target: human GPR119 (Homo sapiens, UniProt Q8TDV5)
Test: Measurement of GPR119 signaling (cAMP assay; LANCE kit or HTRF) in HEK293 cells stably transfected with human GPR119
Conditions: agonist-stimulated cAMP in HEK293 cells expressing human GPR119
Method: Measurement of GPR119 Signaling Using LANCE 384-Well cAMP Kit The adenylate cyclase assay was constructed following the LANCE™ cAMP Kit (Perkin Elmer, AD0264) instructions. […] Fluorescence at 665 nm was measured using a PHERAstar instrument. Basal activity was determined using a DMSO control and maximum response was defined as cAMP stimulation produced by an internal agonist control. Standard cAMP concentrations were assayed concurrently for conversion of fluorescence signal to cAMP level. […]
MEASURED_METRIC: EC50 (nM)
Could you give me the number in nM? Just the number is fine.

Guide cases for EC50, answers given:
>>> reported("CC(C)COC(=O)N1CCC([C@H]2C[C@H]2COCc2ccc(S(C)(=O)=O)cc2)CC1 [Example 10]")
8.2
>>> reported("CCc1cnc(N2CCC([C@H]3C[C@H]3COCc3ccc(S(=O)(=O)C4CC4)cc3)CC2)nc1 [Example 56]")
1.2
>>> reported("CCc1cnc(N2CCC([C@H]3C[C@H]3COCc3ccc(S(C)(=O)=O)cn3)CC2)nc1 [Example 3]")
1.5

Please examine the following record next.
IN: Item under review: CCc1cnc(N2CCC([C@H]3C[C@H]3COCc3ccc(-c4ccncn4)c(F)c3)CC2)nc1 [Example 112] . Reported EC50?
OUT: 3

---

Target: human GPR119 (Homo sapiens, UniProt Q8TDV5)
Sequence (Q8TDV5 1-308 limits assumed): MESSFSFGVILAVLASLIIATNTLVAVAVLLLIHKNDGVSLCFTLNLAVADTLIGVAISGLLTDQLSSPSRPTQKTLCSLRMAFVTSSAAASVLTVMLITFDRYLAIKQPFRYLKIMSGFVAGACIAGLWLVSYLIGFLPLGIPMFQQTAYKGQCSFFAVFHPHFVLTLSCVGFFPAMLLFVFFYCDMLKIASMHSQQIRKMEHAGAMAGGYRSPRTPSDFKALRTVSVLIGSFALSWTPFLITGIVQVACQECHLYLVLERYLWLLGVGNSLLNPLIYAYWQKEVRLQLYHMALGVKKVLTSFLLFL
Experiment: Measurement of GPR119 signaling (cAMP assay; LANCE kit or HTRF) in HEK293 cells stably transfected with human GPR119
Details: agonist-stimulated cAMP in HEK293 cells expressing human GPR119
Lab note - cut at 2 nM for EC50: 1 if strictly below, 0 if not.

Answered cases to consult:
>>> discrete_label("CCc1cnc(N2CCC([C@H]3C[C@H]3COCc3ccc(S(=O)(=O)CC)cc3)CC2)nc1")
1
>>> discrete_label("COC(C)c1cnc(N2CCC([C@H]3C[C@H]3COCc3ccc(S(C)(=O)=O)c(F)c3)CC2)nc1 (single isomer, unassigned) [Example 131]")
1
>>> discrete_label("CC(C)(C)OC(=O)N1CCC([C@H]2C[C@H]2COCc2cc(F)c(C(=O)C3CC3)c(F)c2)CC1")
0

// next entry
IN: Please determine if `CCc1noc(N2CCC([C@H]3C[C@H]3COCc3ccc(S(C)(=O)=O)c(F)c3)CC2)n1` is below 2 nM in terms of EC50.
OUT: 1
